Source of measurements: patent US12162858B2

Target: UniProt:P30530
Sequence (P30530 26-894): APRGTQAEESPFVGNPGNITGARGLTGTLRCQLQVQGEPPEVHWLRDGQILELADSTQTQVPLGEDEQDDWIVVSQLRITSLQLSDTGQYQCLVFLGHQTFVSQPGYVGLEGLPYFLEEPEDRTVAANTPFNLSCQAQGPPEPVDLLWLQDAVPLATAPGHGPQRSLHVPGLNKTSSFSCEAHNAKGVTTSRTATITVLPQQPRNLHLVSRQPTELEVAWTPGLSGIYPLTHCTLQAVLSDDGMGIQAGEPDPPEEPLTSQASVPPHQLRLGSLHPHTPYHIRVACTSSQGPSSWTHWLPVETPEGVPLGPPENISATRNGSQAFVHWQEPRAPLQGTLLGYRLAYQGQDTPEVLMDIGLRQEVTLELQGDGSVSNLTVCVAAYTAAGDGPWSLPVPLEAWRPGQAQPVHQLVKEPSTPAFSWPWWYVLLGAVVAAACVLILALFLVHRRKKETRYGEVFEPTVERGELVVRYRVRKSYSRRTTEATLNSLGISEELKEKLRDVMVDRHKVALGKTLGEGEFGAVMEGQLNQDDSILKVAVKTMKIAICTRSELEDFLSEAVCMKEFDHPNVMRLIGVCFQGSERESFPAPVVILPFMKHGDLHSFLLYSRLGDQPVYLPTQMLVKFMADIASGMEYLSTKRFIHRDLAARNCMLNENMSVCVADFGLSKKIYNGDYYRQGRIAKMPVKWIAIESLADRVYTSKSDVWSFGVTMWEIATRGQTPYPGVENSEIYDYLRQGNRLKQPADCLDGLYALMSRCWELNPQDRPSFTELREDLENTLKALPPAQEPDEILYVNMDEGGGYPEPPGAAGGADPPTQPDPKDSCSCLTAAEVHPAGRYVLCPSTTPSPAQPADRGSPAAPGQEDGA
Assay: Cellular Axl inhibition ELISA (p-Axl, Gas6-induced) using H1299 cells
Assay type: cell-based
Design: especially H1299 cell endogenously expresses Axl; endogenous in cells; host or cells: H1299
Conditions: read-out: Cellular Axl activity by H1299 Elisa (IC50)
Catalogue of IC50 values

Check out these entries, answers already filled in.
{"Molecule": "COc1cc2nccc(Oc3ccc(NC(=O)c4nn(C5CC5)cc4NCCC(F)(F)F)nn3)c2cc1OC", "IC50": "< 500 nM"}
{"Molecule": "COc1cc2nccc(Oc3ccc(NC(=O)c4nn(CC(C)C)cc4OCC(F)(F)F)cc3F)c2cc1OC", "IC50": "< 500 nM"}
{"Molecule": "CCCn1cc(OCC(F)(F)F)c(C(=O)Nc2ccc(Oc3ccnc4cc(OC)c(OC)cc34)cc2F)n1", "IC50": "< 500 nM"}
{"Molecule": "CCCn1cc(OCC2CCOCC2)c(C(=O)Nc2ccc(Oc3ccnc4cc(OC)c(OC)cc34)cn2)n1", "IC50": "< 500 nM"}
{"Molecule": "CCCn1cc(OCCNC)c(C(=O)Nc2ccc(Oc3ccnc4cc(OC)c(OC)cc34)cn2)n1", "IC50": "≥ 1000 nM"}
{"Molecule": "COc1cc2nccc(Oc3ccc(NC(=O)c4nn(C[C@H](C)O)cc4OCC(F)(F)F)nc3)c2cc1OC", "IC50": "< 500 nM"}

# get_value(readout='IC50', item= COc1cc2nccc(Oc3ccc(NC(=O)c4nn(C5CCN(C)C5)cc4OCC(F)(F)F)cn3)c2cc1OC (stereo not shown) ) ≥ 1000 nM
